testSummary: Enzymatic stability in crude rat brain membranes
Format: in vitro ADME
details: enzymatic degradation in crude rat brain membranes; read-out: 1/2 life time
Where a SMILES comes first, the peptide text is derived from it. [ ]: non-standard residue; d: D form. The star is where a group is joined. X1 = CCCC[C@@H](NC(=O)CC(=O)*)NC(=O)[C@H](Cc1ccc(CS(=O)(=O)O)cc1)NC(C)=O; sY = N[C@@H](Cc1ccc(OS(=O)(=O)O)cc1)C(=O)O; NMeNle = CCCC[C@H](NC)C(=O)O; Nle = CCCC[C@H](N)C(=O)O; Boc = CC(C)(C)OC(=O)*
measurementType: half-life

CSCC[C@H](NC(=O)[C@H](Cc1ccc(OS(=O)(=O)O)cc1)NC(=O)[C@@H](N)CC(=O)O)C(=O)NCC(=O)N[C@@H](Cc1c[nH]c2ccccc12)C(=O)N[C@@H](CCSC)C(=O)N[C@@H](CC(=O)O)C(=O)N[C@@H](Cc1ccccc1)C(N)=O [CCK8, reference compound]
0.75 h
CCCC[C@H](NC(=O)[C@H](Cc1ccc(OS(=O)(=O)O)cc1)NC(=O)OC(C)(C)C)C(=O)NCC(=O)N[C@@H](Cc1c[nH]c2ccccc12)C(=O)N(C)[C@@H](CCCC)C(=O)N[C@@H](CC(=O)O)C(=O)N[C@@H](Cc1ccccc1)C(N)=O [Example 16] (Boc-[sY][Nle]GW[NMeNle]DF-NH2)
> 4.17 h

Per the records, this molecule ( CCCC[C@@H](NC(=O)CC(=O)N[C@@H](Cc1c[nH]c2ccccc12)C(=O)N(C)[C@@H](CCCC)C(=O)N[C@@H](CC(=O)O)C(=O)N[C@@H](Cc1ccccc1)C(N)=O)NC(=O)[C@H](Cc1ccc(OS(=O)(=O)O)cc1)NC(=O)OC(C)(C)C ) has half-life equal to > 3 h

So, CCCC[C@@H](NC(=O)CC(=O)N[C@@H](Cc1c[nH]c2ccccc12)C(=O)N(C)[C@@H](CCCC)C(=O)N[C@@H](CC(=O)O)C(=O)N[C@@H](Cc1ccccc1)C(N)=O)NC(=O)[C@H](Cc1ccc(CS(=O)(=O)O)cc1)NC(C)=O [Example 18] (X1-W[NMeNle]DF-NH2) ? Its half-life was > 4.17 h
